tested on: SU-DHL-1; assay: Cell viability assay (CellTiter-Glo 2.0), SU-DHL-1; format: cell-based; settings: Homo sapiens, 96 h; SU-DHL-1 cells, 4 days
IC50 values for the compounds below.

Item `CS(=O)(=O)c1cccc(OC[C@H](CCC(N)=O)NC(=O)[C@@H]2CC[C@@H]3CCN(C(=O)CCN4CCC5(CC4)COc4c5ccc5c4CN([C@H]4CCC(=O)NC4=O)C5=O)C[C@H](NC(=O)c4cc5cc(C(F)(F)P(=O)(O)O)ccc5s4)C(=O)N32)c1` has what recorded IC50?
1 to 10 µM

How about this compound: `CC(C)S(=O)(=O)c1ccc(CNC(=O)[C@H](CCC(N)=O)NC(=O)[C@@H]2CC[C@@H]3CCN(C(=O)CCCCN4CCC5(CC4)COc4c5ccc5c4CN([C@H]4CCC(=O)NC4=O)C5=O)C[C@H](NC(=O)c4cc5cc(C(F)(F)P(=O)(O)O)ccc5s4)C(=O)N32)cc1`
1 to 10 µM

All figures here come from patent US20250195484A1.
